# Assay notes: in vitro
# Protocol conditions: human, Caco-2, pH 7.4

Compound: CC(C)(C)NCC(O)COc1cccc2c1CC(O)C(O)C2 (stereo not shown) [Nadolol, reference compound]
Value comparator: =
efflux ratio at 2 h, 3 μM: 1.3
//
Compound: [2H]C([2H])([2H])NC(=O)c1nnc(NC(=O)C2CC2)cc1Nc1cc(OC)cc(-c2cnn(C)n2)c1OC [Example 24]
Value comparator: =
efflux ratio at 2 h, 3 μM: 0.5
//
Compound: [2H]C([2H])([2H])NC(=O)c1nnc(Nc2cc(C)n(C)n2)cc1Nc1cccc(-c2cnn(C)n2)c1OC [Example 6]
Value comparator: =
efflux ratio at 2 h, 3 μM: 0.9
//
Compound: [2H]C([2H])([2H])NC(=O)c1nnc(NC(=O)C2CC2)cc1Nc1nc(F)cc(-c2cnn(C)n2)c1OC [Example 62]
Value comparator: =
efflux ratio at 2 h, 3 μM: 0.4
//
Compound: [2H]C([2H])([2H])NC(=O)c1nnc(Nc2ccccn2)cc1Nc1cccc(-c2cnn(C)n2)c1OC [Example 8]
Value comparator: <
efflux ratio at 2 h, 3 μM: 0.8
//
Compound: [2H]C([2H])([2H])NC(=O)c1nnc(NC(=O)C2CC2)cc1Nc1nccc(-c2cnn(C)n2)c1OC [Example 36]
Value comparator: =
efflux ratio at 2 h, 3 μM: 0.6
//
Compound: [2H]C([2H])([2H])NC(=O)c1nnc(NC(=O)C2CC2)cc1Nc1cccc(-c2cnn(CC)n2)c1OC [Example 1]
Value comparator: =
efflux ratio at 2 h, 3 μM: 0.8

----------
# Test system: Caco-2 cells
# Protocol conditions: human, Caco-2, 2 h, 3 μM, pH 7.4
Measured CACO2 (A-B), listed per entry for reference.
Recorded endpoint: CACO2 (A-B)

Mol smiles: [2H]C([2H])([2H])NC(=O)c1nnc(NC(=O)C2CC2)cc1Nc1cccc(-c2cnn(C)n2)c1OC(F)F
Target or system: Caco-2 cells
Recorded endpoint: CACO2 (A-B)
Result: 432 nm/s
//
Mol smiles: [2H]C([2H])([2H])NC(=O)c1nnc(NC(=O)C2CC2)cc1Nc1ccc(C2CC2)c(-c2cnn(C)n2)c1OC
Target or system: Caco-2 cells
Recorded endpoint: CACO2 (A-B)
Result: 507 nm/s
//
Mol smiles: [2H]C([2H])([2H])NC(=O)c1nnc(NC(=O)C2CC2)cc1Nc1cc(Cl)cc(-c2cnn(CC)n2)c1OC
Target or system: Caco-2 cells
Recorded endpoint: CACO2 (A-B)
Result: 63 nm/s
//
Mol smiles: [2H]C([2H])([2H])NC(=O)c1nnc(NC(=O)C2CC2)cc1Nc1nccc(-c2cnn(C)n2)c1OC(F)F
Target or system: Caco-2 cells
Recorded endpoint: CACO2 (A-B)
Result: 340 nm/s
//
Mol smiles: [2H]C([2H])([2H])NC(=O)c1nnc(NC(=O)C2CC2)cc1Nc1cccc(-c2cnn(C3CCC3)n2)c1OC
Target or system: Caco-2 cells
Recorded endpoint: CACO2 (A-B)
Result: 180 nm/s
//
Mol smiles: [2H]C([2H])([2H])NC(=O)c1nnc(NC(=O)C2CC2)cc1Nc1nccc(-c2cnn(C3CC3)n2)c1OC
Target or system: Caco-2 cells
Recorded endpoint: CACO2 (A-B)
Result: 446 nm/s
//
Mol smiles: [2H]C([2H])([2H])NC(=O)c1nnc(NC(=O)C2CC2)cc1Nc1ccc(F)c(-c2cnn(C3CC3)n2)c1OC
Target or system: Caco-2 cells
Recorded endpoint: CACO2 (A-B)
Result: 392 nm/s

----------
# Assay notes: Bidirectional permeability assay in Caco-2 cells
# Protocol conditions: human, Caco-2, pH 7.4

Compound: C[C@H]1O[C@@H](O[C@H]2[C@@H](O)C[C@H](O[C@H]3[C@@H](O)C[C@H](O[C@H]4CC[C@@]5(C)[C@H](CC[C@@H]6[C@@H]5C[C@@H](O)[C@]5(C)[C@@H](C7=CC(=O)OC7)CC[C@]65O)C4)O[C@@H]3C)O[C@@H]2C)C[C@H](O)[C@@H]1O [Digoxin, reference compound]
Papp A→B at 2 h, 3 μM / ×10⁻⁶ cm/s: 1.8

----------
# Assay notes: Brain penetration in vivo assay (brain and plasma exposure)
# Design: species or system mouse
# Protocol conditions: C57BL6, mouse, brain / plasma, 2 mg/kg; footnote **: 2 mpk iv solution dose, exposures measured at 40 minutes; read-out: Ratio of exposure in brain to plasma (mouse)

Mol smiles: [2H]C([2H])([2H])NC(=O)c1nnc(NC(=O)OC)cc1Nc1cccc(-c2cnn(C)n2)c1OC
Kp at 40 min: 0.5

----------
# Assay notes: Brain penetration in vivo assay (brain and plasma exposure)
# Protocol conditions: C57BL6, brain / plasma, 10 mg/kg, mouse, 10 mpk, po, read-out: Ratio of exposure in brain to plasma (mouse) (1 h, 10 mpk, po)

Mol smiles: [2H]C([2H])([2H])NC(=O)c1nnc(NC(=O)C2CC2)cc1Nc1cc(OC)cc(-c2cnn(C)n2)c1OC
Kp at 1 h: 0.2
--
Mol smiles: [2H]C([2H])([2H])NC(=O)c1nnc(Nc2ccc(OC)nn2)cc1Nc1cccc(-c2cnn(C)n2)c1OC
Kp at 1 h: 0.2
--
Mol smiles: [2H]C([2H])([2H])NC(=O)c1nnc(NC(=O)C2CC2)cc1Nc1cc(F)cc(-c2cnn(C)n2)c1OC
Kp at 1 h: 0.8
--
Mol smiles: [2H]C([2H])([2H])NC(=O)c1nnc(NC(=O)C2CC2)cc1Nc1cc(C)cc(-c2cnn(C3CC3)n2)c1OC
Kp at 1 h: 0.2
--
Mol smiles: [2H]C([2H])([2H])NC(=O)c1nnc(NC(=O)[C@@H]2C[C@@H]2F)cc1Nc1nccc(-c2cnn(C)n2)c1OC
Kp at 1 h: 0.1
--
Mol smiles: [2H]C([2H])([2H])NC(=O)c1nnc(NC(=O)C2CC2)cc1Nc1cccc(-c2cnn(C3CC3)n2)c1OC
Kp at 1 h: 0.5
--
Mol smiles: [2H]C([2H])([2H])NC(=O)c1nnc(NC(=O)C2CC2)cc1Nc1cccc(-c2cnn(CC)n2)c1OC
Kp at 1 h: 0.7
--
Mol smiles: [2H]C([2H])([2H])NC(=O)c1nnc(NC(=O)C2CC2)cc1Nc1nccc(-c2cnn(C)n2)c1OC
Kp at 1 h: 0.8
--
Mol smiles: [2H]C([2H])([2H])NC(=O)c1nnc(NC(=O)[C@@H]2C[C@H]2C)cc1Nc1nccc(-c2cnn(C)n2)c1OC
Kp at 1 h: 0.3

----------
# Assay notes: Bidirectional permeability assay in Caco-2 cells
# Protocol conditions: human, Caco-2, pH 7.4

Compound: C[C@H]1O[C@@H](O[C@H]2[C@@H](O)C[C@H](O[C@H]3[C@@H](O)C[C@H](O[C@H]4CC[C@@]5(C)[C@H](CC[C@@H]6[C@@H]5C[C@@H](O)[C@]5(C)[C@@H](C7=CC(=O)OC7)CC[C@]65O)C4)O[C@@H]3C)O[C@@H]2C)C[C@H](O)[C@@H]1O [Digoxin, reference compound]
Papp B→A at 2 h, 3 μM / ×10⁻⁶ cm/s: 26.5

----------
# Assay notes: in vitro
# Protocol conditions: human, Caco-2, pH 7.4

Molecule: CC(C)(C)NCC(O)COc1cccc2c1CC(O)C(O)C2 (stereo not shown) [Nadolol, reference compound]
Papp B→A at 2 h, 3 μM (×10⁻⁶ cm/s): 2.5

----------
# Assay notes: in vitro
# Protocol conditions: human, Caco-2, pH 7.4

Molecule: [2H]C([2H])([2H])NC(=O)c1nnc(NC(=O)C2CC2)cc1Nc1cc(CC)cc(-c2cnn(C)n2)c1OC [Example 21]
Value comparator: =
efflux ratio at 2 h, 3 μM: 0.5

Molecule: [2H]C([2H])([2H])NC(=O)c1nnc(Nc2ccc(OC)nn2)cc1Nc1cccc(-c2cnn(C)n2)c1OC [Example 5]
Value comparator: =
efflux ratio at 2 h, 3 μM: 0.9

Molecule: [2H]C([2H])([2H])NC(=O)c1nnc(NC(=O)C2CC2)cc1Nc1cc(F)cc(-c2cnn(C)n2)c1OC [Example 4]
Value comparator: =
efflux ratio at 2 h, 3 μM: 0.6

Molecule: [2H]C([2H])([2H])NC(=O)c1nnc(NC(=O)C2CC2)cc1Nc1c(F)ccc(-c2cnn(C)n2)c1OC [Example 22]
Value comparator: =
efflux ratio at 2 h, 3 μM: 0.7

Molecule: [2H]C([2H])([2H])NC(=O)c1nnc(NC(=O)[C@@H]2C[C@@H]2F)cc1Nc1nccc(-c2cnn(C)n2)c1OC [Example 37]
Value comparator: =
efflux ratio at 2 h, 3 μM: 0.9

Molecule: [2H]C([2H])([2H])NC(=O)c1nnc(NC(=O)C2CC2)cc1Nc1cccc(-c2cnn(C3CC3)n2)c1OC [Example 11]
Value comparator: =
efflux ratio at 2 h, 3 μM: 0.7

Molecule: [2H]C([2H])([2H])NC(=O)c1nnc(NC(=O)C2CC2)cc1Nc1cccc(-c2nn(C)nc2CC)c1OC [Example 20]
Value comparator: =
efflux ratio at 2 h, 3 μM: 1.1

Molecule: [2H]C([2H])([2H])NC(=O)c1nnc(Nc2cc(C)nc(C)n2)cc1Nc1nccc(-c2cnn(C)n2)c1OC [Example 64]
Value comparator: <
efflux ratio at 2 h, 3 μM: 0.9

Molecule: [2H]C([2H])([2H])NC(=O)c1nnc(NC(=O)[C@@H]2C[C@@H]2F)cc1Nc1nc(C)cc(-c2cnn(C)n2)c1OC [Example 69]
Value comparator: =
efflux ratio at 2 h, 3 μM: 0.6

Molecule: [2H]C([2H])([2H])NC(=O)c1nnc(NC(=O)C2CC2)cc1Nc1cc(F)c(C)c(-c2cnn(C)n2)c1OC [Example 19]
Value comparator: =
efflux ratio at 2 h, 3 μM: 0.7

Molecule: [2H]C([2H])([2H])NC(=O)c1nnc(NC(=O)[C@@H]2C[C@H]2C)cc1Nc1nccc(-c2cnn(C)n2)c1OC [Example 41]
Value comparator: =
efflux ratio at 2 h, 3 μM: 0.5

Molecule: [2H]C([2H])([2H])NC(=O)c1nnc(NC(=O)OC)cc1Nc1cccc(-c2cnn(C)n2)c1OC [Example 7]
Value comparator: =
efflux ratio at 2 h, 3 μM: 0.4

Molecule: [2H]C([2H])([2H])NC(=O)c1nnc(NC(=O)C2CC2)cc1Nc1cccc(-c2nn(C)nc2C)c1OC [Example 23]
Value comparator: =
efflux ratio at 2 h, 3 μM: 1.2

Molecule: [2H]C([2H])([2H])NC(=O)c1nnc(NC(=O)C2CC2)cc1Nc1cc(C)cc(-c2cnn(C3CC3)n2)c1OC [Example 9]
Value comparator: =
efflux ratio at 2 h, 3 μM: 0.3

Molecule: [2H]C([2H])([2H])NC(=O)c1nnc(Nc2ccccn2)cc1Nc1nccc(-c2cnn(C)n2)c1OC [Example 63]
Value comparator: <
efflux ratio at 2 h, 3 μM: 0.4
